Origin of measurements: patent US11236055B2

assay: Comparison of PK in DIO mice and lean mice; assay type: in vivo, mouse; settings: C57BL/6N, mouse, plasma, po, 10 mg/kg, DIO mice, non-fasted, 10 mpk
READOUT_KIND: Tmax (h)
API: value field is a number in h; no unit string.

Give its Tmax value. Item: Cc1cnccc1-c1cccc(C(C)(C)N(CCCC(=O)NCCS(=O)(=O)O)S(=O)(=O)c2ccccc2C(F)(F)F)c1 [Compound 20AA]
1

---

experiment: Portal vein versus systemic pharmacokinetics in hepatic portal vein cannulated rats; assay type: in vivo, rat; details: rat, systemic plasma (retro-orbital sinus); Peripheral bleed (retro-orbital sinus), portal vein cannulated male CD (SD) rats, 10 mg/kg oral
READOUT_KIND: Tmax

Give its Tmax value. Item: CCc1cnccc1-c1cccc([C@H](C)N(CCCC(=O)NCCS(=O)(=O)NCC(=O)O)S(=O)(=O)c2ccccc2C(F)(F)F)c1 [Compound 20BG]
15 to 60 min

---

target: mouse TGR5 receptor (Mus musculus, UniProt Q80SS6); construct: expressed in transfected cells; host or cells: HEK293-EBNA (293 c18, ATCC CRL10852), Hygromycin B selection; assay: Mouse TGR5 cAMP production assay (luminescent, DiscoveRx cAMP XS+); format: cell-based; conditions: HEK293-EBNA cells overexpressing mouse TGR5, luminescent cAMP XS+; coded A-D; read-out: Mouse TGR5 Lum. cAMP Activity (EC50)
Sequence (Q80SS6 whole entry): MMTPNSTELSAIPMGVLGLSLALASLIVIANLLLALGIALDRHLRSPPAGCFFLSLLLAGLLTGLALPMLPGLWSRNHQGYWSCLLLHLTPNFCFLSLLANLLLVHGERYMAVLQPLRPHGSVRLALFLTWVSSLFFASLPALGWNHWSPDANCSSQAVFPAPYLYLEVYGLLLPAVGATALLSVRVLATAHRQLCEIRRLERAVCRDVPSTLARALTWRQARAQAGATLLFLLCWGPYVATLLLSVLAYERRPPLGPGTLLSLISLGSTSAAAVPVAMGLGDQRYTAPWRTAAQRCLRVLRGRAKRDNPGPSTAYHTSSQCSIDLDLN
pEC50: −log10 of the molar value.
The following compounds are listed with their measured pEC50 values.

Cc1cc(-c2cccc(CNS(=O)(=O)c3cccc(C(F)(F)F)c3)c2)ncn1 [Compound 1BI]
< 4.52
CCOc1cnccc1-c1cccc(C(C)(C)NS(=O)(=O)c2cccc(C(F)(F)F)c2)c1 [Compound 8AB]
6.00 to 7.00
Cc1cnccc1-c1cccc(C(C)(C)NS(=O)(=O)c2ccccc2C(F)(F)F)c1 [Compound 5AI]
6.00 to 7.00
Cc1ccc(C(C)(C)NS(=O)(=O)c2cccc(C(F)(F)F)c2)cc1-c1ccncc1 [Compound 1BW]
< 4.52
C[C@H](NS(=O)(=O)c1ccccc1C(F)(F)F)c1cccc(-c2ccncc2Cl)c1 [Compound 2BT]
6.00 to 7.00

Give its pEC50 value. Item: CC(C)(NS(=O)(=O)c1cccc(C(F)(F)F)c1)c1cccc(-c2ccncc2Cl)c1 [Compound 1AF]
6.00 to 7.00

Give its pEC50 value. Item: Cc1noc(C)c1-c1cccc(CNS(=O)(=O)c2cc(C(F)(F)F)cc(C(F)(F)F)c2)c1 [Compound 2AH]
< 4.52

Give its pEC50 value. Item: O=S(=O)(NCc1cccc(-c2ccncn2)c1)c1cccc(C(F)(F)F)c1 [Compound 1BK]
< 4.52

Give its pEC50 value. Item: O=S(=O)(NCc1cccc(-c2ccncc2)c1)c1ccccc1F [Compound 2AS]
< 4.52

---

The following molecules are listed with their measured Cmax values.
test: Pharmacokinetic profile in mice; type: in vivo; conditions: mouse; fasted male Hilltop mice, 10 mg/kg oral gavage, plasma, mean of three mice
API: value field is a number in ng/mL; no unit string.

Solved cases below.
Cc1cnccc1-c1cccc([C@H](C)N(CCCCC(=O)NCCS(=O)(=O)NCCC(=O)O)S(=O)(=O)c2ccccc2C(F)(F)F)c1 [Compound 20BM]
0.6
Cc1cnccc1-c1cccc(C(C)(C)N(CCCNC(=O)CS(=O)(=O)O)S(=O)(=O)c2cccc(Cl)c2C)c1 [Compound 31AB]
35.8
CCc1cnccc1-c1cccc(C2CN(C(=O)COCC(=O)O)CCN2S(=O)(=O)c2cccc(Cl)c2C)c1 (centres unmarked) [Compound 46AB]
4.5

Give its Cmax value. Item: CCc1cnccc1-c1cccc([C@H](C)N(CCCC(=O)NCCS(=O)(=O)O)S(=O)(=O)c2cccc(Cl)c2C)c1 [Compound 21AQ]
4.2

Give its Cmax value. Item: Cc1cnccc1-c1cccc(C(C)(C)N(CCCN/C(=N\C#N)NCCC(=O)O)S(=O)(=O)c2cccc(Cl)c2C)c1
3.1
